- Experimental system: PDGF-receptor beta enzyme comprising the tyrosine kinase domain (Homo sapiens, UniProt P09619)
- Construct: from amino acid 545 to 1106 of GenBank Access NO: AAA36427
- Sequence (P09619 545-1106): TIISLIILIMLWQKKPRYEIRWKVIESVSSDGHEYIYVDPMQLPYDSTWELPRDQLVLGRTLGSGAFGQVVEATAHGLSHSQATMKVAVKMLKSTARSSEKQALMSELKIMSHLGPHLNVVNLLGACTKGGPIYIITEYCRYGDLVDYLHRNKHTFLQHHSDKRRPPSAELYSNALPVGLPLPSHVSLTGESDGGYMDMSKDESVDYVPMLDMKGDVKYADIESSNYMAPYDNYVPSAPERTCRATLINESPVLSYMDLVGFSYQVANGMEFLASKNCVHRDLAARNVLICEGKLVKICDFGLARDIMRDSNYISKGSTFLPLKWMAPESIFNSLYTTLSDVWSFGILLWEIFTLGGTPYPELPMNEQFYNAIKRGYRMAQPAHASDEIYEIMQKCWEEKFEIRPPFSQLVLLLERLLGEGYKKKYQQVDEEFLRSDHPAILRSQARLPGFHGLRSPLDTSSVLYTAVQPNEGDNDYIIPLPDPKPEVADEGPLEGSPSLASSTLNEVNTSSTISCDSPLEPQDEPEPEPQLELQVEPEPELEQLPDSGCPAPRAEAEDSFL
- Assay summary: Inhibition of PDGF-receptor kinase activity (cell-free, PLC1 peptide, 33P Flashplate)
- Type: biochemical
- Conditions: PDGF-R kinase activity; read-out: IC50
pIC50: −log10 of the molar value.
I'd appreciate it if you could label each record using pIC50 and these ranges: bottom: < 6; middle: ≥ 6 and < 7; top: ≥ 7

                                    compound  answer_label
 0  COc1cc2c(cc1OC)-c1n[nH]c(Nc3cccc(OCc4ccccc4)c3)c1C2 [Compound 54]           top
 1  CC(C)Oc1cc2c(cc1OC(C)C)C(C)c1c-2n[nH]c1Nc1ccc(F)c(Cl)c1 (stereo not drawn) [Compound 354]        bottom
 2  COc1cc2c(cc1OCC(O)CO)Cc1c-2n[nH]c1NCc1c(F)cccc1F (stereo not drawn) [Compound 457]           top
 3  Cc1cccc2c1Cc1c-2n[nH]c1Nc1ccc(C(F)(F)F)cc1 [Compound 105]        bottom
 4  CCOc1cccc(Nc2[nH]nc3c2Cc2c(OCCCN4CCOCC4)cccc2-3)c1 [Compound 394]        middle
 5  Cc1cccc2c1Cc1c-2n[nH]c1Nc1cc(F)ccc1F [Compound 103]        bottom
 6  CCOc1cccc(Nc2[nH]nc3c2Cc2cc(OCC)c(OCCCO)cc2-3)c1 [Compound 388]           top
 7  OCCCOc1cccc2c1Cc1c-2n[nH]c1Nc1cccc(Cl)c1 [Compound 440]           top
 8  COCCOC(=O)n1nc2c(c1Nc1cccc(F)c1)Cc1cc(OC)c(OC)cc1-2 [Compound 437]        middle
 9  COc1cc2c(cc1OCCCO)Cc1c-2n[nH]c1NCc1c(Cl)cccc1Cl [Compound 448]           top
10  COCCCOc1cc2c(cc1OCCCOC)-c1n[nH]c(Nc3ccc(F)c(Cl)c3)c1C2 [Compound 287]           top
11  C=C(C)C(=O)OCCNC(=O)n1nc(Nc2cccc(F)c2)c2c1-c1cc(OC)c(OC)cc1C2 [Compound 527]        bottom
12  COc1cc2c(cc1OC)C(C)c1c-2n[nH]c1Nc1cc(F)cc(F)c1 (stereo not drawn) [Compound 251]        middle
13  COc1cc2c(cc1OC)-c1c(c(Nc3cccc(F)c3)nn1C(=O)OCCOCc1ccccc1)C2 [Compound 470]        middle

Hello, the source for this data is patent US7196110B2, in case you need it.
